Parameter Ratio: see the listing below.
testSystem: Nuclear receptor subfamily 1 group I member 2 (Homo sapiens)
Sequence (O75469 whole entry): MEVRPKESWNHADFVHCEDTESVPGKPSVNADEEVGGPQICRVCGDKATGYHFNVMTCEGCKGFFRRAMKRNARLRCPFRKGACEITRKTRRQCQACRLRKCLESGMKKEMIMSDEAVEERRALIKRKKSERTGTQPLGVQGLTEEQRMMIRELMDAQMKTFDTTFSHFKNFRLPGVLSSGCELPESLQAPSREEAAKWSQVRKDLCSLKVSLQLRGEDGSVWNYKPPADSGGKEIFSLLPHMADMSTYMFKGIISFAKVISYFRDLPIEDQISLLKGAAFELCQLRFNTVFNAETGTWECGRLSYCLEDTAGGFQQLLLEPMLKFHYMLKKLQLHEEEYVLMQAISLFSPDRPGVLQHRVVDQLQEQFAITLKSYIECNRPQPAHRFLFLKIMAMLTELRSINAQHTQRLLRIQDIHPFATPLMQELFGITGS
procedureSummary: Activity at PXR in human hepatocytes assessed as induction of CYP3A4 activity at 1 uM relative rifampicin
Format: cell-based, Hepatocyte
testReadout: Ratio

[
  {
    "structureAsSmiles": "COC(=O)N[C@]1(Cc2ccc(Cl)cc2)C[C@H]2CC[C@@H](C1)N2C(c1ccccc1Cl)c1ccccc1Cl",
    "endpointResult": 1.1
  },
  {
    "structureAsSmiles": "CC(=O)N[C@]1(c2ccccn2)C[C@H]2CC[C@@H](C1)N2C(c1ccccc1Cl)c1ccccc1Cl",
    "endpointResult": 1.97
  },
  {
    "structureAsSmiles": "N[C@]1(c2ccc(F)cn2)C[C@H]2CC[C@@H](C1)N2C(c1ccccc1Cl)c1ccccc1Cl",
    "endpointResult": 0.23
  },
  {
    "structureAsSmiles": "Cc1ccc([C@@]2(C(N)=O)C[C@H]3CC[C@@H](C2)N3C(c2ccccc2Cl)c2ccccc2Cl)nc1",
    "endpointResult": 0.4
  },
  {
    "structureAsSmiles": "N[C@]1(c2ccccn2)C[C@H]2CC[C@@H](C1)N2C(c1ccccc1Cl)c1ccccc1Cl",
    "endpointResult": 0.47
  },
  {
    "structureAsSmiles": "NC(=O)[C@]1(c2cc(F)c(F)cn2)C[C@H]2CC[C@@H](C1)N2C(c1ccccc1Cl)c1ccccc1Cl",
    "endpointResult": 0.18
  },
  {
    "structureAsSmiles": "NC(=O)[C@]1(c2cccnc2)C[C@H]2CC[C@@H](C1)N2C(c1ccccc1Cl)c1ccccc1Cl",
    "endpointResult": 0.4
  },
  {
    "structureAsSmiles": "CC(=O)N[C@]1(c2ccc(F)cn2)C[C@H]2CC[C@@H](C1)N2C(c1ccccc1Cl)c1ccccc1Cl",
    "endpointResult": 1.47
  }
]

* * *

testSystem: Nociceptin receptor (Homo sapiens)
Sequence (P41146 whole entry): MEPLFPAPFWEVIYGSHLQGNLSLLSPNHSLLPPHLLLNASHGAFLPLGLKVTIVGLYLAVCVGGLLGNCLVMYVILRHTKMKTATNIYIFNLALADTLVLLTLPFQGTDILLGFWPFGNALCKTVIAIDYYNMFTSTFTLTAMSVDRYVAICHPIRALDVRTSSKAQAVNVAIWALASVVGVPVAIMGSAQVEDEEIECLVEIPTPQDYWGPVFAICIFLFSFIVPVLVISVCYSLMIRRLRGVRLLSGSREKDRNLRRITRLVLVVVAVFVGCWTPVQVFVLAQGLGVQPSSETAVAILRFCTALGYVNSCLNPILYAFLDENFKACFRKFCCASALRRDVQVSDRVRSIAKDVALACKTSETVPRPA
procedureSummary: Agonist activity at human cloned ORL1 receptor assessed as stimulation of GTPgammaS binding at 10 uM
Assay type: functional
testReadout: Activity (%)

[
  {
    "structureAsSmiles": "NC(=O)[C@]1(c2ccc(Cl)cn2)C[C@H]2CC[C@@H](C1)N2C(c1ccccc1Cl)c1ccccc1Cl",
    "testSystem": "Nociceptin receptor (Homo sapiens)",
    "testReadout": "Activity",
    "endpointResult": 145
  },
  {
    "structureAsSmiles": "COC(=O)N[C@]1(c2ccccn2)C[C@H]2CC[C@@H](C1)N2C(c1ccccc1Cl)c1ccccc1Cl",
    "testSystem": "Nociceptin receptor (Homo sapiens)",
    "testReadout": "Activity",
    "endpointResult": 92
  },
  {
    "structureAsSmiles": "NC(=O)[C@@]1(Cc2ccc(F)cc2)C[C@H]2CC[C@@H](C1)N2C(c1ccccc1Cl)c1ccccc1Cl",
    "testSystem": "Nociceptin receptor (Homo sapiens)",
    "testReadout": "Activity",
    "endpointResult": 108
  },
  {
    "structureAsSmiles": "NC(=O)[C@]1(c2ccc(Br)cn2)C[C@H]2CC[C@@H](C1)N2C(c1ccccc1Cl)c1ccccc1Cl",
    "testSystem": "Nociceptin receptor (Homo sapiens)",
    "testReadout": "Activity",
    "endpointResult": 75
  },
  {
    "structureAsSmiles": "NC(=O)[C@]1(c2ccc(F)cn2)C[C@H]2CC[C@@H](C1)N2C(c1ccccc1Cl)c1ccccc1Cl",
    "testSystem": "Nociceptin receptor (Homo sapiens)",
    "testReadout": "Activity",
    "endpointResult": 95
  },
  {
    "structureAsSmiles": "CC(=O)N[C@]1(c2ccccn2)C[C@H]2CC[C@@H](C1)N2C(c1ccccc1Cl)c1ccccc1Cl",
    "testSystem": "Nociceptin receptor (Homo sapiens)",
    "testReadout": "Activity",
    "endpointResult": 84
  }
]
